- ASSAYED SYSTEM: Tyrosine-protein phosphatase non-receptor type 1 (Homo sapiens)
pKd: −log10 of the molar value.

CHEMICAL STRING: CCOc1ccc(Oc2ccc(C(=O)/C=C/c3cc(O)c(O)c(Br)c3Br)cc2)cc1
pKd: 7.21

###

Items are presented alongside their recorded pIC50.
- ASSAYED SYSTEM: Tyrosine-protein phosphatase non-receptor type 1 (Homo sapiens, UniProt P18031)
- Sequence (P18031 whole entry, the tested form may be a part): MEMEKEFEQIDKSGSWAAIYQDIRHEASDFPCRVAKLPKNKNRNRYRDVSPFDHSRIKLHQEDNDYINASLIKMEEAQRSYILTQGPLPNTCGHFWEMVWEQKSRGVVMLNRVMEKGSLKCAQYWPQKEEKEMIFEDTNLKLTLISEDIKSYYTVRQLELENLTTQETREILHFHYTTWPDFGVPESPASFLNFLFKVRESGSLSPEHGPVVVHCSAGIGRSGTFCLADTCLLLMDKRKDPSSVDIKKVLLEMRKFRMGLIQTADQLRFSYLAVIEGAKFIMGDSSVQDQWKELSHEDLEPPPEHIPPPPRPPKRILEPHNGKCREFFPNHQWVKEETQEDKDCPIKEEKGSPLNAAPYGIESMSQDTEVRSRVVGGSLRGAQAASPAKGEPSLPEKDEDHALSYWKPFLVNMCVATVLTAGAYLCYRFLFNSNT
- MEASUREMENT DESCRIPTION: Allosteric inhibition of PTP1B (unknown origin) using pNPP as substrate incubated for 30 mins by spectrophotometry
pIC50: −log10 of the molar value.
RECORDED METRIC: pIC50

CHEMICAL STRING: COc1ccc(C(=O)/C=C/c2cc(O)c(O)c(Br)c2Br)cc1Br
RECORDED METRIC: pIC50
NUMERIC RESULT: 5.84
--
CHEMICAL STRING: O=C(/C=C/c1cc(O)c(O)c(Br)c1Br)c1cccc(Cl)c1
RECORDED METRIC: pIC50
NUMERIC RESULT: 5.59
--
CHEMICAL STRING: Cc1ccccc1C(=O)/C=C/c1cc(O)c(O)c(Br)c1Br
RECORDED METRIC: pIC50
NUMERIC RESULT: 5.77
--
CHEMICAL STRING: COc1ccc(C(=O)/C=C/c2cc(O)c(O)c(Br)c2)cc1Br
RECORDED METRIC: pIC50
NUMERIC RESULT: 5.61
--
CHEMICAL STRING: O=C(/C=C/c1cc(O)c(O)c(Br)c1)c1cc(Br)c(O)c(Br)c1
RECORDED METRIC: pIC50
NUMERIC RESULT: 5.59
--
CHEMICAL STRING: O=C(/C=C/c1cc(O)c(O)c(Br)c1Br)c1ccc(Cl)cc1
RECORDED METRIC: pIC50
NUMERIC RESULT: 5.67
--
CHEMICAL STRING: O=C(/C=C/c1cc(O)c(O)c(Br)c1Br)c1ccc(Cl)c(Cl)c1
RECORDED METRIC: pIC50
NUMERIC RESULT: 5.52
--
CHEMICAL STRING: O=C(/C=C/c1cc(O)c(O)c(Br)c1Br)c1ccccc1Cl
RECORDED METRIC: pIC50
NUMERIC RESULT: 5.66
--
CHEMICAL STRING: O=C(/C=C/c1cc(O)c(O)c(Br)c1Br)c1cccc(C(F)(F)F)c1
RECORDED METRIC: pIC50
NUMERIC RESULT: 5.44
--
CHEMICAL STRING: Cc1ccc(C(=O)/C=C/c2cc(O)c(O)c(Br)c2Br)cc1
RECORDED METRIC: pIC50
NUMERIC RESULT: 5.70
--
CHEMICAL STRING: CCOc1ccc(Oc2ccc(C(=O)/C=C/c3cc(O)c(O)c(Br)c3Br)cc2)cc1
RECORDED METRIC: pIC50
NUMERIC RESULT: 5.97
--
CHEMICAL STRING: CCOc1ccc(C(=O)/C=C/c2cc(O)c(O)c(Br)c2Br)cc1
RECORDED METRIC: pIC50
NUMERIC RESULT: 5.49

###

- ASSAYED SYSTEM: Tyrosine-protein phosphatase non-receptor type 1 (Homo sapiens)
- MEASUREMENT DESCRIPTION: Allosteric inhibition of recombinant human PTP1B (1 to 321 residues) using pNPP as substrate preincubated for 5 mins followed by substrate addition measured after 10 mins
RECORDED METRIC: Ki (µM)

CHEMICAL STRING: CCOc1ccc(Oc2ccc(C(=O)/C=C/c3cc(O)c(O)c(Br)c3Br)cc2)cc1
NUMERIC RESULT: 2.33
